Biological target: human glucagon receptor (human, UniProt P47871 26-477)
Experiment: cell-based or functional assay
Non-standard residues stand in square brackets, D forms with d. No end group written: not given here. *: point of attachment. 2CF3‑APPA = 2-amino-5-(2-(trifluoromethyl)phenyl)pentanoic acid; Bip(2'-Et-4'-OMe) = CCc1cc(OC)ccc1-c1ccc(C[C@H](N)C(=O)O)cc1; Leu(5,5,5,5',5',5'-F6) = N[C@@H](CC(C(F)(F)F)C(F)(F)F)C(=O)O; 2F‑APPA = 2-amino-5-(2-fluorophenyl)pentanoic acid; αMePhe(2-F) = C[C@](N)(Cc1ccccc1F)C(=O)O; hhPhe = N[C@@H](CCCc1ccccc1)C(=O)O; aThr = C[C@H](O)[C@H](N)C(=O)O; CNB = not defined here; Aib = CC(C)(N)C(=O)O; Moc = COC(=O)*
Mark fulfilled for reported inhibition of cAMP production, 100 nM of 7 pmol/ml/µg prt or greater; mark not fulfilled for anything smaller.

# example entries with known answers
BINDER	ANSWER LABEL
H[Aib][Leu(5,5,5,5',5',5'-F6)]G[aThr][αMePhe(2-F)][aThr]SD[Bip(2'-Et-4'-OMe)][hhPhe] [Seq. ID. No. 228: H-Aib-(Hfl)-G-T(allo)-(α-Me-2F-Phe)-T(allo)-SD-Bip(OMe)-(APPA)]	fulfilled
Moc-H[Aib][CNB]GT[αMePhe(2-F)]TSD[Bip(2'-Et-4'-OMe)][2F‑APPA] (reading uncertain) [Seq. ID. No. 208: CH3OCO-H-Aib-(CNB)-GT-(α-Me-2F-Phe)-TSD-Bip(OMe)-(2F-APPA)]	not fulfilled

(Q) Entry H-HSQGTFTSD[Bip(2'-Et-4'-OMe)][hhPhe]-NH2 [Seq. ID. No. 5: HSQGTFTSD-Bip(OMe)-(APPA)] : is its inhibition of cAMP production, 100 nM no less than 7 pmol/ml/µg prt?
(A) not fulfilled

(Q) Entry H[Aib][CNB]GTFTSD[Bip(2'-Et-4'-OMe)][2CF3‑APPA] (reading uncertain) [Seq. ID. No. 79: H-Aib-(CNB)-GTFTSD-Bip(OMe)-(2CF3-APPA)] : is its inhibition of cAMP production, 100 nM no less than 7 pmol/ml/µg prt?
(A) not fulfilled
